# tested_on: HLA-B*07:02
# test_method_notes: IEDB peptide-MHC binding, purified MHC/direct/fluorescence; filed as Kd, often an IC50 or EC50 that approximates it; bounds were set here for any values at or beyond the usual limits of such assays
# reported_conditions: source organism: Shigella flexneri
pKd: −log10 of the molar value.
measured_parameter: pKd

sequence_input	tested_on	recorded_measurement
KTTLFHTFK	HLA-B*07:02	≤ 4.70

---

Here the recorded pKd is given for each entry.
# tested_on: HLA-A*02:02
# test_method_notes: IEDB peptide-MHC binding, purified MHC/competitive/radioactivity; filed as Kd, often an IC50 or EC50 that approximates it; bounds were set here for any values at or beyond the usual limits of such assays
# reported_conditions: source organism: SARS coronavirus Tor2
pKd: −log10 of the molar value.
measured_parameter: pKd

sequence_input	recorded_measurement
ALVCYIVMPV	8.92
FLAFLLFLVL	7.88
QLMCQPILLL	7.03
YALCTLLHL	5.88
AIYVFCISL	6.84
VMFNGVTFST	9.16
FLTNKLLLFA	9.38

---

# tested_on: HLA-A*68:02
# test_method_notes: IEDB peptide-MHC binding, purified MHC/direct/fluorescence; filed as Kd, often an IC50 or EC50 that approximates it; bounds were set here for any values at or beyond the usual limits of such assays
# reported_conditions: source organism: Listeria monocytogenes

sequence_input	tested_on	Kd
EIEIEKNKK	HLA-A*68:02	≥ 20 µM

---

# tested_on: HLA-A*30:01
# test_method_notes: IEDB peptide-MHC binding, purified MHC/competitive/radioactivity; filed as Kd, often an IC50 or EC50 that approximates it; bounds were set here for any values at or beyond the usual limits of such assays
# reported_conditions: source organism: Vaccinia virus WR

sequence_input	result_units	Kd
RVRNIIASI	nM	0.103
KAISNARLK	nM	26
KAKTTISNY	nM	24.3
SVKCQSPPS	nM	16.8
ISRSRRLFA	nM	2.23
RTKITSLPL	nM	0.0866
TTRDKLFNK	nM	123
HFKPPKFRA	nM	8.86
KAFKKFPSG	nM	247
KIKSSNSSK	nM	14.6
IKYACKQIL	nM	2110
HVKSTLNNA	nM	1.15
RIRNKFMFI	nM	0.0693
AVAKYFSPL	nM	8980
KFRPGSLIY	nM	0.303
ITLTNVVNI	nM	34.6

---

# tested_on: HLA-A*69:01
# test_method_notes: IEDB peptide-MHC binding, purified MHC/direct/fluorescence; filed as Kd, often an IC50 or EC50 that approximates it; bounds were set here for any values at or beyond the usual limits of such assays
# reported_conditions: source organism: Haemophilus influenzae
measured_parameter: Kd (µM)

sequence_input	tested_on	measured_parameter	result_units	reading_qualifier	recorded_measurement
MTMRRRLFK	HLA-A*69:01	Kd	µM	≥	20
EQFPNATAF	HLA-A*69:01	Kd	µM	=	9.85
MLEEMQSAV	HLA-A*69:01	Kd	µM	=	2.66

---

# tested_on: HLA-B*08:02
# test_method_notes: IEDB peptide-MHC binding, purified MHC/direct/fluorescence; filed as Kd, often an IC50 or EC50 that approximates it; bounds were set here for any values at or beyond the usual limits of such assays
# reported_conditions: source organism: Giardia lamblia ATCC 50803
pKd: −log10 of the molar value.
measured_parameter: pKd

sequence_input	recorded_measurement
ETESVNSNY	≤ 4.70
